Hello, the source for this data is paper PMC9762759, in case you need it.

- study.system: recombinant human NC (rhNC) (Homo sapiens, UniProt Q9NR71)
- Construct: purchased R&D Systems
- Sequence (Q9NR71 whole entry): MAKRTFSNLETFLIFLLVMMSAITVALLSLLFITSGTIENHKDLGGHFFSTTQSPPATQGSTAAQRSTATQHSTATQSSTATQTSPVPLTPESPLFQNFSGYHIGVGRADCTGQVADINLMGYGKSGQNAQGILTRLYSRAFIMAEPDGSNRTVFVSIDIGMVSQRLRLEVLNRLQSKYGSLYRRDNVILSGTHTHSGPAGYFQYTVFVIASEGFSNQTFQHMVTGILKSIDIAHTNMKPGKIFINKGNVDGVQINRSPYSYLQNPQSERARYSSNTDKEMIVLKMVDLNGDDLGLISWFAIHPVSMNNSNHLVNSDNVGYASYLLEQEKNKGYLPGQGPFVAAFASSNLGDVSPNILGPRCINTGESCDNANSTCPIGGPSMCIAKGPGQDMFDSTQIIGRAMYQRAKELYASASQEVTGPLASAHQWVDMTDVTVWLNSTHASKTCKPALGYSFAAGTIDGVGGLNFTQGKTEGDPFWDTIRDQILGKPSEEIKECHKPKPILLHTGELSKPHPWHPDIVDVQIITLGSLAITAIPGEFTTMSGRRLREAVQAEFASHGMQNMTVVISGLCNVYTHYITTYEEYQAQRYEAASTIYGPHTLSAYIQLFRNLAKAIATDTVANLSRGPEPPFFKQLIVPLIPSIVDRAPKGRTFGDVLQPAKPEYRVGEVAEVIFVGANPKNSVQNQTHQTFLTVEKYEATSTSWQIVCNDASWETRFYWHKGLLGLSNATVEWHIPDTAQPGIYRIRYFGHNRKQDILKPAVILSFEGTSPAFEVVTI
- experimental.details: Neutral ceramidase assay, fluorogenic substrate RBM14-C24:1
- Format: biochemical
- test.context: single-point concentration of 50 μM; means of three replicates
property.measured: inhibition at 50 µM (%)
Numeric only. Scale: %

Memo: `CCC(CC)(c1ccc(OCC2(C(C)(C)C)OCCO2)c(C)c1)c1cc(C)c2oc(C(=O)NCC(=O)O)cc2c1` , reported inhibition at 50 µM: 22.9

Quick note, inhibition at 50 µM for `CCCCc1ccc(C(=O)CCC2C(=O)c3ccccc3C2=O)cc1` landed at -1.3

Lab note: measured inhibition at 50 µM of CC(OC(=O)c1c2c(nc3ccccc13)/C(=C/c1cccs1)CC(C(C)(C)C)C2)C(=O)Nc1ccc(C(N)=O)cc1 (stereo not drawn) was 35.6

So, `Cc1cc(O[C@H](c2ccc(C(=O)NC[C@H](O)C(=O)O)s2)C(C)C)cc(C)c1-c1ccc(C(F)(F)F)cc1` ? Its inhibition at 50 µM was -8.9

# inhibition at 50 µM of Cc1ccc(CN2CC(C(=O)N(C)Cc3ccc(Cl)c(Cl)c3)CC2=O)cc1 (stereo not drawn) = 20.8

In plain terms, `C=CCNC(=S)Nc1ccc(Cl)c([N+](=O)[O-])c1` has a documented inhibition at 50 µM of 23.4

Lookup result for CC1CCCCN1C(=O)Nc1ccc(Oc2ccccc2)cc1 (stereo not drawn) ; measured inhibition at 50 µM: 8.5

inhibition at 50 µM recorded for this compound, `CN(CCc1ccccn1)S(=O)(=O)c1cccc(Br)c1` , is -5.9

The reported inhibition at 50 µM of the compound `CC(C)(C)CC(=O)N1CCN(c2cccc(C(F)(F)F)c2)CC1` was -4.1
